These measurements were taken from patent US12508328B2.

- testDetails: Terbium(III) luminescence: determination of q
- Assay type: physicochemical
- setupConditions: 10a′-d′, Horrock's equation; MOPS/CO3^2− buffer pH 7.4
Would you mind telling me the reported q (buffer) of each entry?
Give a plain numeric answer without units written out.

Which q (buffer) reading was recorded for the compound CCOC(=O)CCCNc1cc(COC(=O)NCCN2CCN(CC(=O)[O-])CCN(CC(=O)[O-])CCN(CC(=O)[O-])CC2)ccc1O[C@@H]1O[C@H](CO)[C@H](O)[C@H](O)[C@H]1O.[Tb+3] [10b′] ?
0

Entry under review: CCOC(=O)CNc1cc(COC(=O)NCCN2CCN(CC(=O)[O-])CCN(CC(=O)[O-])CCN(CC(=O)[O-])CC2)ccc1O[C@@H]1O[C@H](CO)[C@H](O)[C@H](O)[C@H]1O.[Tb+3] [10a′] . Reported q (buffer)?
0.3

# get_value(readout='q (buffer)', item= CCOC(=O)CCCCCNc1cc(COC(=O)NCCN2CCN(CC(=O)[O-])CCN(CC(=O)[O-])CCN(CC(=O)[O-])CC2)ccc1O[C@@H]1O[C@H](CO)[C@H](O)[C@H](O)[C@H]1O.[Tb+3] [10c′] )
0.1

For the compound CCOC(=O)CCCCCCCNc1cc(COC(=O)NCCN2CCN(CC(=O)[O-])CCN(CC(=O)[O-])CCN(CC(=O)[O-])CC2)ccc1O[C@@H]1O[C@H](CO)[C@H](O)[C@H](O)[C@H]1O.[Tb+3] [10d′] , what q (buffer) is on record?
0.1

Which q (buffer) value belongs to CCOC(=O)CCCCCNc1cc(COC(=O)NCCN2CCN(CC(=O)[O-])CCN(CC(=O)[O-])CCN(CC(=O)[O-])CC2)ccc1O[C@@H]1O[C@H](CO)[C@H](O)[C@H](O)[C@H]1O.[Gd+3] [10c] ?
0.1

====

Give τH2O for every item shown.
- testDetails: Terbium(III) luminescence: determination of q
- Assay type: physicochemical
- setupConditions: Tb(III) analogues 10a′-d′, H2O, emission 543 nm

Using the record for CCOC(=O)CCCNc1cc(COC(=O)NCCN2CCN(CC(=O)[O-])CCN(CC(=O)[O-])CCN(CC(=O)[O-])CC2)ccc1O[C@@H]1O[C@H](CO)[C@H](O)[C@H](O)[C@H]1O.[Tb+3] [10b′] , report its τH2O.
1.6(3) ms

Which τH2O value belongs to CCOC(=O)CNc1cc(COC(=O)NCCN2CCN(CC(=O)[O-])CCN(CC(=O)[O-])CCN(CC(=O)[O-])CC2)ccc1O[C@@H]1O[C@H](CO)[C@H](O)[C@H](O)[C@H]1O.[Tb+3] [10a′] ?
1.1(4) ms

Sample CCOC(=O)CCCCCCCNc1cc(COC(=O)NCCN2CCN(CC(=O)[O-])CCN(CC(=O)[O-])CCN(CC(=O)[O-])CC2)ccc1O[C@@H]1O[C@H](CO)[C@H](O)[C@H](O)[C@H]1O.[Tb+3] [10d′] — what was its τH2O?
1.9(3) ms

Consider the compound shown here: CCOC(=O)CCCCCNc1cc(COC(=O)NCCN2CCN(CC(=O)[O-])CCN(CC(=O)[O-])CCN(CC(=O)[O-])CC2)ccc1O[C@@H]1O[C@H](CO)[C@H](O)[C@H](O)[C@H]1O.[Tb+3] [10c′] What is its recorded τH2O?
1.8(9) ms

====

- testSystem: β-galactosidase (Escherichia coli, UniProt P00722)
- Construct: purchased Sigma Aldrich
- Sequence (P00722 2-1024): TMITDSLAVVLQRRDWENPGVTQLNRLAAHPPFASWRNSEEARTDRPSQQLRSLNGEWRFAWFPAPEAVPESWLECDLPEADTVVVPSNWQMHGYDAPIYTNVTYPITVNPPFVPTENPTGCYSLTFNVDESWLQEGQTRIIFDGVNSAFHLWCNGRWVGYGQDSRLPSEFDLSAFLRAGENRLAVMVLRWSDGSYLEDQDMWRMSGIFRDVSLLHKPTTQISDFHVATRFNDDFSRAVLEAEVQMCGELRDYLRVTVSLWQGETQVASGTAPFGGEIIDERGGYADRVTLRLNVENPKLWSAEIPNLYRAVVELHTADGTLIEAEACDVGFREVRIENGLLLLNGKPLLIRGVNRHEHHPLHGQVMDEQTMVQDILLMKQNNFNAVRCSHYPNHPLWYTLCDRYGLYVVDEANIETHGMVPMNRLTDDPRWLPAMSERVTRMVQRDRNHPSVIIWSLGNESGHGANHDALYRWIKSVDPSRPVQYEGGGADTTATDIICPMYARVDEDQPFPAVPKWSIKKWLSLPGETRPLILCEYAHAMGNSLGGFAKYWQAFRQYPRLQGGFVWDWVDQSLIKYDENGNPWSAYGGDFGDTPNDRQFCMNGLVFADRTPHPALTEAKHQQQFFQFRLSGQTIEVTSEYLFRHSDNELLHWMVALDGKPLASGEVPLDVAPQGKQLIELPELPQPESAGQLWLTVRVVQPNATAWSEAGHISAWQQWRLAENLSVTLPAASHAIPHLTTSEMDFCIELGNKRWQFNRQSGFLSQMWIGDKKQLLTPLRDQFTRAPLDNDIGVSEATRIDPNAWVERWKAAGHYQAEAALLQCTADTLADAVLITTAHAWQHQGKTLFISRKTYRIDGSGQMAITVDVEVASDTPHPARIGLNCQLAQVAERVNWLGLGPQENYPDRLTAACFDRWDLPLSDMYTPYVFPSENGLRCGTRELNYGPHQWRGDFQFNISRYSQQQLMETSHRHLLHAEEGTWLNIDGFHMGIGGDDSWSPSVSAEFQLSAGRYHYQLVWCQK
- Assay type: biochemical
- setupConditions: 25° C., TES buffer, 1 mM MgCl2, 150 mM NaCl; 420 nm
measuredMetric: Kcat

Tell me the measured Kcat of O=C([O-])CN1CCN(CCNC(=O)OCc2ccc([N+](=O)[O-])c(O[C@@H]3O[C@H](CO)[C@H](O)[C@H](O)[C@H]3O)c2)CCN(CC(=O)[O-])CCN(CC(=O)[O-])CC1.[Gd+3] , please.
679 +/− 135.8 S−1

Give its Kcat value. Item: O=[N+]([O-])c1ccccc1O[C@@H]1O[C@H](CO)[C@H](O)[C@H](O)[C@H]1O [ONPG, ortho-nitrophyenyl-[…]-galactoside, reference compound]
600 +/− 29.7 S−1

// Kcat lookup, key: O=C([O-])CN1CCN(CCNC(=O)OCc2ccc(O[C@@H]3O[C@H](CO)[C@H](O)[C@H](O)[C@H]3O)c([N+](=O)[O-])c2)CCN(CC(=O)[O-])CCN(CC(=O)[O-])CC1.[Gd+3]
765 +/− 37.8 S−1

Need Kcat of O=C([O-])CN1CCN(CCNC(=O)OCc2cc([N+](=O)[O-])ccc2O[C@@H]2O[C@H](CO)[C@H](O)[C@H](O)[C@H]2O)CCN(CC(=O)[O-])CCN(CC(=O)[O-])CC1.[Gd+3] , thanks.
637 +/− 21.9 S−1

Name the recorded Kcat for O=[N+]([O-])c1ccc(O[C@@H]2O[C@H](CO)[C@H](O)[C@H](O)[C@H]2O)cc1 [PNPG, para-nitrophyenyl-[…]-galactoside, reference compound] .
276 +/− 16.9 S−1

====

Kindly supply the reported τHbuf values for the records listed here.
- testDetails: Terbium(III) luminescence: determination of q
- Format: physicochemical
- setupConditions: 10a′-d′, MOPS/CO3^2− buffer pH 7.4

What does the record list as τHbuf for CCOC(=O)CCCCCCCNc1cc(COC(=O)NCCN2CCN(CC(=O)[O-])CCN(CC(=O)[O-])CCN(CC(=O)[O-])CC2)ccc1O[C@@H]1O[C@H](CO)[C@H](O)[C@H](O)[C@H]1O.[Tb+3] [10d′] ?
1.9(7) ms

Any idea what its τHbuf is? The compound is CCOC(=O)CNc1cc(COC(=O)NCCN2CCN(CC(=O)[O-])CCN(CC(=O)[O-])CCN(CC(=O)[O-])CC2)ccc1O[C@@H]1O[C@H](CO)[C@H](O)[C@H](O)[C@H]1O.[Tb+3] [10a′]
1.7(2) ms

Which τHbuf is reported for this compound? CCOC(=O)CCCCCNc1cc(COC(=O)NCCN2CCN(CC(=O)[O-])CCN(CC(=O)[O-])CCN(CC(=O)[O-])CC2)ccc1O[C@@H]1O[C@H](CO)[C@H](O)[C@H](O)[C@H]1O.[Tb+3] [10c′]
1.9(3) ms

For CCOC(=O)CCCNc1cc(COC(=O)NCCN2CCN(CC(=O)[O-])CCN(CC(=O)[O-])CCN(CC(=O)[O-])CC2)ccc1O[C@@H]1O[C@H](CO)[C@H](O)[C@H](O)[C@H]1O.[Tb+3] [10b′] , what is its reported τHbuf?
1.8(9) ms

====

- testDetails: Terbium(III) luminescence: determination of q
- Type: physicochemical
- setupConditions: 10a′-d′, deuterated MOPS/CO3^2− buffer pH 7.4
measuredMetric: τDbuf

Which measured τDbuf value corresponds to CCOC(=O)CCCCCCCNc1cc(COC(=O)NCCN2CCN(CC(=O)[O-])CCN(CC(=O)[O-])CCN(CC(=O)[O-])CC2)ccc1O[C@@H]1O[C@H](CO)[C@H](O)[C@H](O)[C@H]1O.[Tb+3] [10d′] ?
2.0(2) ms

Dear colleague, I am looking for the recorded τDbuf of the following molecule: CCOC(=O)CCCNc1cc(COC(=O)NCCN2CCN(CC(=O)[O-])CCN(CC(=O)[O-])CCN(CC(=O)[O-])CC2)ccc1O[C@@H]1O[C@H](CO)[C@H](O)[C@H](O)[C@H]1O.[Tb+3] [10b′]
1.8(8) ms

I have this molecule here, CCOC(=O)CNc1cc(COC(=O)NCCN2CCN(CC(=O)[O-])CCN(CC(=O)[O-])CCN(CC(=O)[O-])CC2)ccc1O[C@@H]1O[C@H](CO)[C@H](O)[C@H](O)[C@H]1O.[Tb+3] [10a′] , and I need its recorded τDbuf.
2.1(8) ms

What measured τDbuf goes with CCOC(=O)CCCCCNc1cc(COC(=O)NCCN2CCN(CC(=O)[O-])CCN(CC(=O)[O-])CCN(CC(=O)[O-])CC2)ccc1O[C@@H]1O[C@H](CO)[C@H](O)[C@H](O)[C@H]1O.[Tb+3] [10c′] ?
2.2(6) ms

====

- testDetails: Terbium(III) luminescence: determination of q
- Type: physicochemical
- setupConditions: 10a′-d′, Horrock's equation; pure water
measuredMetric: q (H2O)
The response must contain the number and no unit.

Look up q (H2O): CCOC(=O)CNc1cc(COC(=O)NCCN2CCN(CC(=O)[O-])CCN(CC(=O)[O-])CCN(CC(=O)[O-])CC2)ccc1O[C@@H]1O[C@H](CO)[C@H](O)[C@H](O)[C@H]1O.[Tb+3] [10a′]
1.3

For CCOC(=O)CCCNc1cc(COC(=O)NCCN2CCN(CC(=O)[O-])CCN(CC(=O)[O-])CCN(CC(=O)[O-])CC2)ccc1O[C@@H]1O[C@H](CO)[C@H](O)[C@H](O)[C@H]1O.[Tb+3] [10b′] , what is its reported q (H2O)?
0.5

I have this compound here, CCOC(=O)CCCCCCCNc1cc(COC(=O)NCCN2CCN(CC(=O)[O-])CCN(CC(=O)[O-])CCN(CC(=O)[O-])CC2)ccc1O[C@@H]1O[C@H](CO)[C@H](O)[C@H](O)[C@H]1O.[Tb+3] [10d′] , and I need its recorded q (H2O).
0.1

q (H2O) lookup needed for CCOC(=O)CCCCCNc1cc(COC(=O)NCCN2CCN(CC(=O)[O-])CCN(CC(=O)[O-])CCN(CC(=O)[O-])CC2)ccc1O[C@@H]1O[C@H](CO)[C@H](O)[C@H](O)[C@H]1O.[Tb+3] [10c′] , thanks.
0.1
